Just for reference, patent US11667631B2 is where these values come from.

- Test summary: Pharmacokinetic (PK) analysis in rats
- Type: in vivo, Sprague Dawley (SD) rats
- Measurement setup: Sprague-Dawley, rat, plasma, po; SD rats, single intragastric administration, 5 mg/kg; read-out: Half-Time t1/2 (converted)
Result type: half-life (min)

[[record]]
compound_smiles = "N#Cc1cnc(NC(=O)N2CCCc3cc(CN4CCOCC4=O)c(C=O)nc32)cc1S[C@H]1CCOC1"
result_type = "half-life"
reading = 47.4

[[record]]
compound_smiles = "COCCSc1cc(NC(=O)N2CCCc3cc(CN4CCOCC4=O)c(C=O)nc32)ncc1C#N"
result_type = "half-life"
reading = 69.6

[[record]]
compound_smiles = "N#Cc1cnc(NC(=O)N2CCCc3cc(CN4CCOCC4=O)c(C=O)nc32)cc1S[C@@H]1CCOC1"
result_type = "half-life"
reading = 57.6

[[record]]
compound_smiles = "CO[C@H]1CCN(c2cc(NC(=O)N3CCCc4cc(CN5CCN(C)CC5=O)c(C=O)nc43)ncc2C#N)C1"
result_type = "half-life"
reading = 54.6

